gMFI on SKW3 WT, anti-hu Kappa FITC by entry:
tgt: T1, human CD4 on cells (SKW3 cells; human PBMCs) (human, UniProt P01730 26-458)
T1 construct: whole, on cells; SKW3 CD4 knockout cells served as the negative cell line in the primary screen; also called hCD4; huCD4
assay_procedure: FACS confirmation, supernatant on SKW3 cells; background gMFI 2500

{"binder": "75110_08K12A (antibody, V domains shown, Tested as non-clonal AlivaMab Mouse Kappa hybridoma supernatant (detected with anti-mouse Fc gamma and anti-human kappa)) VH: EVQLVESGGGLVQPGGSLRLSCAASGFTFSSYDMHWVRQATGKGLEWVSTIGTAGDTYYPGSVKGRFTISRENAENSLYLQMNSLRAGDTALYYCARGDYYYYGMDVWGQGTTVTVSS VL: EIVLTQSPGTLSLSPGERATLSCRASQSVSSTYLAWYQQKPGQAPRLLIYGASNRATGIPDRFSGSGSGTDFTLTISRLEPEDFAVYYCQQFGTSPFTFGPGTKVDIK", "gMFI on SKW3 WT, anti-hu Kappa FITC (gMFI)": 5300}
{"binder": "75110_08G08A (antibody, V domains shown, Tested as non-clonal AlivaMab Mouse Kappa hybridoma supernatant (detected with anti-mouse Fc gamma and anti-human kappa)) VH: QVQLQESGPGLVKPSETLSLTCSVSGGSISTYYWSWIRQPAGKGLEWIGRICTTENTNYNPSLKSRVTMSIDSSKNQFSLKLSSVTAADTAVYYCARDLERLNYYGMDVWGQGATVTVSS VL: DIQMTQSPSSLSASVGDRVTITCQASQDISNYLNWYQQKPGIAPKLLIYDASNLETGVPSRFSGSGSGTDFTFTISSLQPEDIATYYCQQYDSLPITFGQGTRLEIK", "gMFI on SKW3 WT, anti-hu Kappa FITC (gMFI)": 5840}
{"binder": "75110_14N19A (antibody, V domains shown, Tested as non-clonal AlivaMab Mouse Kappa hybridoma supernatant (detected with anti-mouse Fc gamma and anti-human kappa)) VH: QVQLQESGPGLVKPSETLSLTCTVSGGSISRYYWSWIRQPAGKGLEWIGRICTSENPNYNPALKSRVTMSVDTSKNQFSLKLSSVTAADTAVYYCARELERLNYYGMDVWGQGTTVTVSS VL: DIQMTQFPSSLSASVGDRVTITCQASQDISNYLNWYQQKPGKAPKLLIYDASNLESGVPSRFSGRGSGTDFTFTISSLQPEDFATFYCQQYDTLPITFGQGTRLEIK", "gMFI on SKW3 WT, anti-hu Kappa FITC (gMFI)": 7640}
{"binder": "75110_08F20A (antibody, V domains shown, Tested as non-clonal AlivaMab Mouse Kappa hybridoma supernatant (detected with anti-mouse Fc gamma and anti-human kappa)) VH: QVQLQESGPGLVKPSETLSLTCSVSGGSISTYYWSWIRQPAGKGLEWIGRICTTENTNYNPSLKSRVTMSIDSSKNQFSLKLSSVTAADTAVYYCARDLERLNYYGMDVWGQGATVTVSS VL: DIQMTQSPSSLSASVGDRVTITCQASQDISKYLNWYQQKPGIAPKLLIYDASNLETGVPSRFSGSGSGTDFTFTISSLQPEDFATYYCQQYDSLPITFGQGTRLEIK", "gMFI on SKW3 WT, anti-hu Kappa FITC (gMFI)": 6170}
{"binder": "75110_06E14A (antibody, V domains shown, Tested as non-clonal AlivaMab Mouse Kappa hybridoma supernatant (detected with anti-mouse Fc gamma and anti-human kappa)) VH: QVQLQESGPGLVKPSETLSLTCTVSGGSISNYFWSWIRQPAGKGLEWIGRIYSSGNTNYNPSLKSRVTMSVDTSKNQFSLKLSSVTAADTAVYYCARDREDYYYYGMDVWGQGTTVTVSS VL: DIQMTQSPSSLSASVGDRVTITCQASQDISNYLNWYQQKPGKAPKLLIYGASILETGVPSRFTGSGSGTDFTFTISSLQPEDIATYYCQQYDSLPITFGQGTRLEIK", "gMFI on SKW3 WT, anti-hu Kappa FITC (gMFI)": 8920}

Just for reference, patent US20220112288A1 is where these values come from.
